molecular target: rhVEGF165 (recombinant human vascular endothelial growth factor 165) (human, UniProt P15692-4 27-191); assay: fluorescence polarization
# Kd annotations
Write the quantity with the unit trailing the number.

CGAGGATATCCGATTGTGGGTGACGTATTGGACACCTTCCCG (ssDNA) [C 2]; 162 nM
GTCTGTACCAATCTAAAAGTGTATATTATATCTACGAGCCT (ssDNA) [R 1]; 100 nM
TGGCTGTTATTTCTCTCGGCCTCAGATCTTGGGCCCAACA (ssDNA) [C 3]; 164 nM
CCTTGTCATGATAGCTATGTTTCAGCCAACCATACCCGCT (ssDNA) [R 3]; 46 nM

Prompt: // query Kd value for entry ATTCTGGGGAGTGGTACGTAAGCAGTGCCACCACGGTTAT (ssDNA) [R 2]
Response: 88 nM

Prompt: // query Kd value for entry GGAAGCCCGCTGTGACATCTGGAGCCGGTTCCCGAGCCA (ssDNA) [C 1]
Response: 101 nM
